B1: TPR t1 (parent)
chain: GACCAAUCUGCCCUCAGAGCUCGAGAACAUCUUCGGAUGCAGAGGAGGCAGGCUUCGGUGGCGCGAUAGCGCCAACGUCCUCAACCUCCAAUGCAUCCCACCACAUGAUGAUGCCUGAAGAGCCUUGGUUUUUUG

Variants of: B1
Test: polymerase ribozyme fitness, log enrichment relative to wild type (log ratio); higher = more active; in vitro selection for triplet polymerase activity
So basically: polymerase ribozyme fitness (log ratio) at -2 or higher? That is y. Lower than -2? That is n.

Determine whether this variant has polymerase ribozyme fitness (log ratio) no lower than -2: GACCAAUCUGCCCUCAGAGCUCGAGAACAUCUUCGGAUGCAGAGGAGACAGGCUUCGGUGGCGCGAUAGCGUCAACGUCCUCAACCUCCAAUGCAUCCCACCACAUGAUGAUGCCUGAAGAGCCUUGGUUUUUUG [G48A C72U]
y

Determine whether this variant has polymerase ribozyme fitness (log ratio) no lower than -2: GACCAAUCUGUCCUCAGAGCUCGAGAACAUCUUCGGAUGCAGAGGAGGCAGGCUUCGGUGGGGCGAUAGCGCCAACGUCCUCAACCUCCAAUGCAUCCCACCACAUGAUGAAGCCUGAAGAGACUUUGUUUUUUG [C11U C62G U112A C123A G127U]
y

Determine whether this variant has polymerase ribozyme fitness (log ratio) no lower than -2: GACCAAUCUGCCCUCAGAGCUCGAGAACAUCUUGGGAUGCAGAGGAGGCAGGCUUCGGUAGCGCGAUAGAGCCAACGUCCUCAACCUCCAAUGCAUCCCACCACUUGAUGAUGCCUUAAGAGCCUAGGAUUUGUG [C34G G60A C70A A105U G117U U126A U129A U133G]
n

Determine whether this variant has polymerase ribozyme fitness (log ratio) no lower than -2: GACCAAUCUGCCCUCAGAGCUCGAGAACAUCUUCGGAUGCAGAGGAGGUGAGCGUCGGUGACGCGAUAGCGCCAACGUCCUCAACCUCCAAUGCAUCCCACCACAUGAUGACGCCUGAAGAGCCUUGGUUUUUUG [C49U A50G G51A U54G G61A U112C]
y

Determine whether this variant has polymerase ribozyme fitness (log ratio) no lower than -2: GACCAAUUUGCCCUCAGAGCUCGAGAACAUCUUCGGAUGCAGAGGAGGCAGGCUUCGGUGGCGCGAUAGUGCCAACGUCCUCAACCUCCAAUGCAUCCCACCACAUGAUGAUGCCUGAAGAGCCUUGGUUUUUUG [C8U C70U]
y

Determine whether this variant has polymerase ribozyme fitness (log ratio) no lower than -2: GACCAAUCCGCCCUAAGAGCUCGAGAACAUCUUCGGAUGCAGAUGAGGCAGGCUUCGGUCGCGCGAUAGCGCCAACGUCCUCAACCUCCAUUGCAUCCCACCACAUGAUGAUGCCUGAAGGGCCUUGGUUUUUUG [U9C C15A G44U G60C A91U A121G]
y

Determine whether this variant has polymerase ribozyme fitness (log ratio) no lower than -2: GACCAAUCUGCCCUCAGAGCUCGAGAACAUCUUCGGAUGCAGAGGAGGCAGGCUUCGGUGGCGCGAUAGCCCCAACGUCCUCAACCUCCAAUGCAUCCCACCACAUGAUAAUGCCUGAAGAGCCUUGGUUUUUUG [G71C G110A]
n

Determine whether this variant has polymerase ribozyme fitness (log ratio) no lower than -2: GACCAAUCUGCCCUCAGAGCUCGAGAACAUCUUCGGAUGCAGAGGAGGCAGGCUUCGGUGGUGCGAUAGCGCCAACGUCCUCAACCUCCAAUGCAUCACACCCCAUGAUGAUGCCUGAAGAGCCUUGGCUUUUUG [C62U C98A A103C U129C]
n

Determine whether this variant has polymerase ribozyme fitness (log ratio) no lower than -2: GACCAAUCUGCCCUCAGAGCUCGAGAACAUCUUCGGAUGCCGAGGAGGCAGGCUUCGGUGGCGCGAUAGCGCCAACGUCCUCAACCUCCAAUGCAUCCCACCACAUGAUGAUGCCUGAAGAGACUUGGUUUUUUG [A41C C123A]
y

Determine whether this variant has polymerase ribozyme fitness (log ratio) no lower than -2: GACCAAUCUGCCCUUAGAGCUCGAGAACAUCUUCGGAUGCAGAGGAGGCAGGCUUCGGUGGCGCGAUAGCGCCAACGUCCUCAACCUCCAAUGCAUCCCUCCACAUGAUGAUGCCUUAAGAGCCUUGGUUUUUUG [C15U A100U G117U]
n

Determine whether this variant has polymerase ribozyme fitness (log ratio) no lower than -2: GACCAAUCUGCCCUCAGAGCGCGAGAACAUCUUCGGAUGCAGAGGAGGCAGGCUUCGGUGUCGCGAUAGCGCCAACGUCCUCAACCUCCAAUGCAUCCCACCACAUGAUGAUGCCUGAAUAGACUUGGUUUUUUG [U21G G61U G120U C123A]
y
